Tested on: ChaGo-K-1
Assay: relative viability (nuclei count vs DMSO), 5 days (fraction); higher = more cells survive
Conditions: first compound 0.8 µM
Response field label takes class 1 when relative viability is strictly below 0.7 and class 0 in all other cases.

Prompt line: Please indicate whether the reported relative viability of O=c1cc(-c2cccc3c2Sc2ccccc2S3)oc(N2CCOCC2)c1 + CCNC(=O)c1noc(-c2cc(C(C)C)c(O)cc2O)c1-c1ccc(CN2CCOCC2)cc1 [Luminespib] (partner 0.01 µM) is strictly below 0.7.
Response line: class 1

Prompt line: Please indicate whether the reported relative viability of O=c1cc(-c2cccc3c2Sc2ccccc2S3)oc(N2CCOCC2)c1 + CS(=O)(=O)N1CCN(Cc2cc3nc(-c4cccc5[nH]ncc45)nc(N4CCOCC4)c3s2)CC1 [Pictilisib] (partner 1 µM) is strictly below 0.7.
Response line: class 0

Prompt line: Consider O=c1cc(-c2cccc3c2Sc2ccccc2S3)oc(N2CCOCC2)c1 + C[C@@H](Oc1cc(-c2cnn(C3CCNCC3)c2)cnc1N)c1c(Cl)ccc(F)c1Cl [Crizotinib] (partner 1 µM) . Does its relative viability lie strictly below 0.7?
Response line: class 0

Prompt line: Just wondering, is relative viability of COc1nc(C)cnc1NS(=O)(=O)c1cccnc1-c1ccc(-c2nnco2)cc1 [Zibotentan] + CCNC(=O)c1noc(-c2cc(C(C)C)c(O)cc2O)c1-c1ccc(CN2CCOCC2)cc1 [Luminespib] (partner 0.01 µM) below 0.7?
Response line: class 1

Prompt line: Does this molecule meet the criterion relative viability < 0.7? O=c1cc(-c2cccc3c2Sc2ccccc2S3)oc(N2CCOCC2)c1 + Nc1ncn([C@H]2C[C@H](O)[C@@H](CO)O2)c(=O)n1 [Decitabine] (partner 2 µM)
Response line: class 1
